src = the supplement of paper PMC10307832

Tested on: PC-3 [JPC-3]
experiment description: relative viability (nuclei count vs DMSO), 5 days (fraction); higher = more cells survive
conditions: first compound 0.03162 µM
property label: relative viability
Returns: the value as a bare number; no unit string appended.

Record O=c1cc(N2CCOCC2)oc2c(-c3cccc4c3sc3ccccc34)cccc12 + Cc1cc(Nc2cc(N3CCN(C)CC3)nc(Sc3ccc(NC(=O)C4CC4)cc3)n2)n[nH]1 [Tozasertib] (partner 0.1 µM) , field relative viability: 0.884

So for O=c1cc(N2CCOCC2)oc2c(-c3cccc4c3sc3ccccc34)cccc12 + Cc1nc(Nc2ncc(C(=O)Nc3c(C)cccc3Cl)s2)cc(N2CCN(CCO)CC2)n1 [Dasatinib] (partner 0.075 µM) , the logged relative viability turned out to be 0.974

Please fill in: relative viability reported for O=c1cc(N2CCOCC2)oc2c(-c3cccc4c3sc3ccccc34)cccc12 + O=C(CCCCCCC(=O)Nc1ccccc1)NO [Vorinostat] (partner 1 µM) = 0.774

Sure, the documented relative viability for O=c1cc(N2CCOCC2)oc2c(-c3cccc4c3sc3ccccc34)cccc12 + COc1cc2c(Oc3ccc(NC(=O)C4(C(=O)Nc5ccc(F)cc5)CC4)cc3F)ccnc2cc1OCCCN1CCOCC1 [Foretinib] (partner 0.25 µM) is 1.08

====

Test system: LCLC-97TM1
experiment description: relative viability (nuclei count vs DMSO), 5 days (fraction); higher = more cells survive
conditions: first compound 0.253 µM
property label: relative viability
Number only, no unit.

Readout relative viability for O=c1cc(-c2cccc3c2Sc2ccccc2S3)oc(N2CCOCC2)c1 + C[C@]1(O)C[C@@H](c2nc(-c3ccc4ccc(-c5ccccc5)nc4c3)c3c(N)nccn32)C1 [Linsitinib] (partner 1 µM) , test system LCLC-97TM1, was 0.194

Fill in: LCLC-97TM1 relative viability for COc1nc(C)cnc1NS(=O)(=O)c1cccnc1-c1ccc(-c2nnco2)cc1 [Zibotentan] + CS(=O)(=O)N1CCN(Cc2cc3nc(-c4cccc5[nH]ncc45)nc(N4CCOCC4)c3s2)CC1 [Pictilisib] (partner 1 µM) = 0.167

Reported relative viability (LCLC-97TM1) for entry COc1nc(C)cnc1NS(=O)(=O)c1cccnc1-c1ccc(-c2nnco2)cc1 [Zibotentan] + CS(=O)(=O)CCNCc1ccc(-c2ccc3ncnc(Nc4ccc(OCc5cccc(F)c5)c(Cl)c4)c3c2)o1 [Lapatinib] (partner 2 µM) is 0.95

Simply: O=c1cc(-c2cccc3c2Sc2ccccc2S3)oc(N2CCOCC2)c1 + Cc1cc(Nc2cc(N3CCN(C)CC3)nc(Sc3ccc(NC(=O)C4CC4)cc3)n2)n[nH]1 [Tozasertib] (partner 0.1 µM) , LCLC-97TM1, relative viability = 0.22

Field relative viability (system: LCLC-97TM1) for entry COc1nc(C)cnc1NS(=O)(=O)c1cccnc1-c1ccc(-c2nnco2)cc1 [Zibotentan] + CC1(C)CCC(c2ccc(Cl)cc2)=C(CN2CCN(c3ccc(C(=O)NS(=O)(=O)c4ccc(N[C@H](CCN5CCOCC5)CSc5ccccc5)c(S(=O)(=O)C(F)(F)F)c4)cc3)CC2)C1 [Navitoclax] (partner 0.5 µM) = 0.402

LCLC-97TM1 relative viability of COc1nc(C)cnc1NS(=O)(=O)c1cccnc1-c1ccc(-c2nnco2)cc1 [Zibotentan] + C[C@@H](Oc1cc(-c2cnn(C3CCNCC3)c2)cnc1N)c1c(Cl)ccc(F)c1Cl [Crizotinib] (partner 1 µM) is 0.374

// relative viability (LCLC-97TM1) for COc1nc(C)cnc1NS(=O)(=O)c1cccnc1-c1ccc(-c2nnco2)cc1 [Zibotentan] + COc1cc2c(Oc3ccc(NC(=O)C4(C(=O)Nc5ccc(F)cc5)CC4)cc3F)ccnc2cc1OCCCN1CCOCC1 [Foretinib] (partner 0.25 µM) = 0.891

Reading of relative viability for O=c1cc(-c2cccc3c2Sc2ccccc2S3)oc(N2CCOCC2)c1 + Nc1nc2[nH]cc(CCc3ccc(C(=O)N[C@@H](CCC(=O)O)C(=O)O)cc3)c2c(=O)[nH]1 [Pemetrexed] (partner 0.2 µM) with LCLC-97TM1: 0.169

Record O=c1cc(-c2cccc3c2Sc2ccccc2S3)oc(N2CCOCC2)c1 + CC(=O)Nc1cccc(-n2c(=O)n(C3CC3)c(=O)c3c(Nc4ccc(I)cc4F)n(C)c(=O)c(C)c32)c1 [Trametinib] (partner 0.02 µM) ; system LCLC-97TM1; relative viability = 0.196

Item O=c1cc(-c2cccc3c2Sc2ccccc2S3)oc(N2CCOCC2)c1 + CS(=O)(=O)CCNCc1ccc(-c2ccc3ncnc(Nc4ccc(OCc5cccc(F)c5)c(Cl)c4)c3c2)o1 [Lapatinib] (partner 2 µM) was tested on LCLC-97TM1; the reported relative viability is 0.781

Note to self: relative viability of O=c1cc(-c2cccc3c2Sc2ccccc2S3)oc(N2CCOCC2)c1 + O=C(CCCCCCC(=O)Nc1ccccc1)NO [Vorinostat] (partner 1 µM) with LCLC-97TM1 was 0.927

Lab note: molecule O=c1cc(-c2cccc3c2Sc2ccccc2S3)oc(N2CCOCC2)c1 + Cc1nc(Nc2ncc(C(=O)Nc3c(C)cccc3Cl)s2)cc(N2CCN(CCO)CC2)n1 [Dasatinib] (partner 0.075 µM) tested on LCLC-97TM1; recorded relative viability was 0.863

Form field, relative viability with LCLC-97TM1, item O=c1cc(-c2cccc3c2Sc2ccccc2S3)oc(N2CCOCC2)c1 + N=C(N)NC(=N)NCCc1ccccc1 [Phenformin] (partner 250 µM) : 0.361

Tested system LCLC-97TM1; relative viability recorded for O=c1cc(-c2cccc3c2Sc2ccccc2S3)oc(N2CCOCC2)c1 + O=C(c1cc(Cc2n[nH]c(=O)c3ccccc23)ccc1F)N1CCN(C(=O)C2CC2)CC1 [Olaparib] (partner 8 µM) was 0.555

# lookup: O=c1cc(-c2cccc3c2Sc2ccccc2S3)oc(N2CCOCC2)c1 + CCNC(=O)c1noc(-c2cc(C(C)C)c(O)cc2O)c1-c1ccc(CN2CCOCC2)cc1 [Luminespib] (partner 0.01 µM) on LCLC-97TM1, relative viability = 0.733
